Target: ABCB1 (P-glycoprotein, MDR1) (Homo sapiens, UniProt P08183)
Sequence (P08183 whole entry): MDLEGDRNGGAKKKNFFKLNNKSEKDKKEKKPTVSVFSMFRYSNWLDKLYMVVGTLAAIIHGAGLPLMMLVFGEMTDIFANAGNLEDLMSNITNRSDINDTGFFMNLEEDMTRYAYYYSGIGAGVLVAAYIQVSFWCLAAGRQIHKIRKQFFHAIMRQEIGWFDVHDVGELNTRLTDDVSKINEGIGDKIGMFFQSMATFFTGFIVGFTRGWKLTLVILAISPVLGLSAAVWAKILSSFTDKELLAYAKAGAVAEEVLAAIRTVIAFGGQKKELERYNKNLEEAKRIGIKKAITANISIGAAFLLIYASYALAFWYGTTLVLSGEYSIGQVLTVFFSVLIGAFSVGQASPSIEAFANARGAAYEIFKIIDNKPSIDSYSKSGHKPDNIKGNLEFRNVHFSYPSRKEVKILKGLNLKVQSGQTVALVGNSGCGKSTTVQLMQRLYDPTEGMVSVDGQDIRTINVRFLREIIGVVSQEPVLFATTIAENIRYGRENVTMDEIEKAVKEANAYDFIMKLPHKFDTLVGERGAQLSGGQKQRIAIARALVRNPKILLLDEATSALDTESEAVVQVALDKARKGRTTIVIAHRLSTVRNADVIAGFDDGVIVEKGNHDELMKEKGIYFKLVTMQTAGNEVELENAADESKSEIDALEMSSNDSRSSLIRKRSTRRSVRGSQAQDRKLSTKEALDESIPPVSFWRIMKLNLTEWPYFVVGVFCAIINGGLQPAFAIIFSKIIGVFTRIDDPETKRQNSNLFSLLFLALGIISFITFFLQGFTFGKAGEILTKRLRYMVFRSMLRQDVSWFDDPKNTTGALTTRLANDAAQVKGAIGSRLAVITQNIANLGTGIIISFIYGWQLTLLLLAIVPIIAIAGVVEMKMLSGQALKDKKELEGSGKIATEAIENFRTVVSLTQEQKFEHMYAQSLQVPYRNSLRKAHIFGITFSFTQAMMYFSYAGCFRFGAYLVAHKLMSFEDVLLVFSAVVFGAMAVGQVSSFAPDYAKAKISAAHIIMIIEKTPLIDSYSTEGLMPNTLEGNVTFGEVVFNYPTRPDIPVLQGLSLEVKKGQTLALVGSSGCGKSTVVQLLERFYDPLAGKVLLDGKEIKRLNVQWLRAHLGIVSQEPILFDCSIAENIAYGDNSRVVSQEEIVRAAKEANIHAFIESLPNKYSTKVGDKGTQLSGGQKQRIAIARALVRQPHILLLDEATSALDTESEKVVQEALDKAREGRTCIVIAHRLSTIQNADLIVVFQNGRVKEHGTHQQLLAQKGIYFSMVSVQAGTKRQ
Test: vanadate-sensitive ATPase assay, crude membranes of High Five cells
EXPERIMENTAL_ENDPOINT: pEC50
// field semantics: pEC50 = negative decimal log of concentration (mol/L)

Field: pEC50 (ABCB1 (P-glycoprotein, MDR1) (Homo sapiens, UniProt P08183)). Entry: C=CC(=O)N1CCC[C@@H](n2nc(-c3ccc(Oc4ccccc4)cc3)c3c(N)ncnc32)C1
6.19
